System: Mast/stem cell growth factor receptor Kit (Homo sapiens), P10721 [D816V]
Sequence (P10721 whole entry D816V): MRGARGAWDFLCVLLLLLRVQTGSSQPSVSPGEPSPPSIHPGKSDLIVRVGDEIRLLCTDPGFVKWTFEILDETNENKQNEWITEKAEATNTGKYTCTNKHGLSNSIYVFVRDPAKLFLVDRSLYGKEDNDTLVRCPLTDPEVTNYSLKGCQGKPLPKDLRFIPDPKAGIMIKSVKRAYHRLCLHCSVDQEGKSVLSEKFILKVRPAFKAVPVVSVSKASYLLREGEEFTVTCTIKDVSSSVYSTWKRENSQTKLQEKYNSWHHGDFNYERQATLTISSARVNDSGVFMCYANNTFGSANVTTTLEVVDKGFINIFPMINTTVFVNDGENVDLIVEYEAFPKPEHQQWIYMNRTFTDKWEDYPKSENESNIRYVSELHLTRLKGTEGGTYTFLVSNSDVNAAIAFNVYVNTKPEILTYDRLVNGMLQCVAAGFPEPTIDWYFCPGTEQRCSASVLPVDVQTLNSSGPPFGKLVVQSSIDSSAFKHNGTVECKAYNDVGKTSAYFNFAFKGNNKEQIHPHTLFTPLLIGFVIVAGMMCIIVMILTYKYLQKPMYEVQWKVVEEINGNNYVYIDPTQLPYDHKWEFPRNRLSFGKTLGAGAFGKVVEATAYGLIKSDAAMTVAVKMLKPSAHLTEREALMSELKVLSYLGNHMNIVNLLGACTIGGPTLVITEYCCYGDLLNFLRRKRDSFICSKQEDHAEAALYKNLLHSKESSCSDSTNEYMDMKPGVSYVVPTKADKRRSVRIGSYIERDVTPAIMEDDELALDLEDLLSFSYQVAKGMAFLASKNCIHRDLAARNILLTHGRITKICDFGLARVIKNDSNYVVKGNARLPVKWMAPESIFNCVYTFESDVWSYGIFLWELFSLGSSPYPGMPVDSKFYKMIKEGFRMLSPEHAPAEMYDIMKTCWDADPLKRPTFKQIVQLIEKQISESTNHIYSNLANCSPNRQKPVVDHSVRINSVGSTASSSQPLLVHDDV
condition_set: at 1 µM
Consider the following compounds; for each one, report its inhibition.
Write the number in % without appending the unit.

IN: Form field - read-out: inhibition; system: Mast/stem cell growth factor receptor Kit (Homo sapiens), P10721 [D816V]; submitted item: COc1cc2ncnc(Nc3ccc(C)c(O)c3)c2cc1OC
OUT: 88.3

IN: Form field: inhibition recorded for COC(=O)Nc1nc2cc(Oc3ccc(NC(=O)Nc4cccc(Br)c4)cc3)ccc2[nH]1 with Mast/stem cell growth factor receptor Kit (Homo sapiens), P10721 [D816V] (enter value)
OUT: 4.47

IN: Enter reported inhibition observed with Mast/stem cell growth factor receptor Kit (Homo sapiens), P10721 [D816V] for ON=C1CCc2cc(-c3nc(C4CCNCC4)[nH]c3-c3ccncc3)ccc21
OUT: 5.8

IN: Recorded inhibition for Cc1cc(-c2ccccn2)cc(C)c1/C=C/c1cncc(-c2nn[nH]n2)c1 with Mast/stem cell growth factor receptor Kit (Homo sapiens), P10721 [D816V], please?
OUT: -1.39

IN: Hi! What's the reported inhibition for CCn1c(-c2nonc2N)nc2ccc(F)cc21 on Mast/stem cell growth factor receptor Kit (Homo sapiens), P10721 [D816V]?
OUT: 3.76

IN: Notebook entry, Mast/stem cell growth factor receptor Kit (Homo sapiens), P10721 [D816V] assay: inhibition of FC(F)(F)c1ccc(-c2nn3ncccc3c2-c2ccnc(Nc3ccc4c(c3)OCCO4)n2)cc1 = ?
OUT: 4.93

IN: # get_value(readout= inhibition, system= Mast/stem cell growth factor receptor Kit (Homo sapiens), P10721 [D816V]) for COc1ccc2ncnc(Nc3ccc(OCc4ccccc4)cc3)c2c1
OUT: 0.98

IN: Value wanted: inhibition (Mast/stem cell growth factor receptor Kit (Homo sapiens), P10721 [D816V]) of entry OCc1ccc(-c2nc(-c3ccccn3)c(-c3ccc4c(c3)OCO4)[nH]2)cc1
OUT: 1.86

IN: Kindly state the measured inhibition obtained for NC(=O)c1sc(-n2cnc3ccccc32)cc1OCc1ccccc1Br with Mast/stem cell growth factor receptor Kit (Homo sapiens), P10721 [D816V].
OUT: 4.99

IN: Given the entry CCS(=O)(=O)c1ccc(OC)c(Nc2nccc(N(C)c3ccc4c(C)n[nH]c4c3)n2)c1 , what inhibition was observed with Mast/stem cell growth factor receptor Kit (Homo sapiens), P10721 [D816V]?
OUT: 23.9

Entry source: ChEMBL document CHEMBL1961873
